Biological target: Receptor-type tyrosine-protein kinase FLT3 (Homo sapiens, UniProt P36888)
Sequence (P36888 whole entry): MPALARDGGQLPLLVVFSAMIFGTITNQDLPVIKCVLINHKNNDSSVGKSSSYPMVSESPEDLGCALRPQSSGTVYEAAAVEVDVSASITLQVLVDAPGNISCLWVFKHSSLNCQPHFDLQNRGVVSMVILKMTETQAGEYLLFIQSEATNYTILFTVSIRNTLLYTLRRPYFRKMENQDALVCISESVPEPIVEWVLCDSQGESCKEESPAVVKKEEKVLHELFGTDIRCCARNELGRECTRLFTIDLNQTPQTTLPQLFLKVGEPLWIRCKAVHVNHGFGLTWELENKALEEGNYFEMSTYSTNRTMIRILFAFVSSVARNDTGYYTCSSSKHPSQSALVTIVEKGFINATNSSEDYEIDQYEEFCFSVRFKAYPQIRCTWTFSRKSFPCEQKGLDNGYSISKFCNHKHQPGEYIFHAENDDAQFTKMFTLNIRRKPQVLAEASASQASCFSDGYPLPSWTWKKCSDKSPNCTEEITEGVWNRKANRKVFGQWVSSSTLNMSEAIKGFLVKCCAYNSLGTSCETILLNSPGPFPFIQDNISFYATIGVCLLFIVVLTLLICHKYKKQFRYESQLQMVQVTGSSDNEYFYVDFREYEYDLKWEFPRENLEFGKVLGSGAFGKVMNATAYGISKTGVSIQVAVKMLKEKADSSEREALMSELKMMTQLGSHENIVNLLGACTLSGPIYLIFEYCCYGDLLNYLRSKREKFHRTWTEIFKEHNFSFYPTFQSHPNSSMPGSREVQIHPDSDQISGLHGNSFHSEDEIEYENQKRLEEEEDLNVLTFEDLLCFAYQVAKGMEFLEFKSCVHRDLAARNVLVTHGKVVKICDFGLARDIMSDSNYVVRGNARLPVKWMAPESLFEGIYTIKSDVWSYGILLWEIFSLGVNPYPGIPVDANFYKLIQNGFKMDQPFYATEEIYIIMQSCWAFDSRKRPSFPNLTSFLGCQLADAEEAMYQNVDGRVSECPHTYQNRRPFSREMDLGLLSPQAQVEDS
RESULT_TYPE: IC50
Kindly report the value followed by its unit.

The value of IC50 measured for the molecule CCN1CCN(Cc2ccc(NC(=O)Nc3ccc(C4=Nc5cscc5NC(=O)C4)cc3)cc2C(F)(F)F)CC1 turned out to be 27.9 nM
